Reference for the values: patent US20170334899A1

# Test system: human cervical tumor cell line HeLa (ATCC CCL-2)
# procedure_text: SAC-Formation - Nocodazole-Induced Assay
# Assay type: cell-based
# condition_info: Homo sapiens, HeLa, 24 h, HeLa cells, nocodazole 0.1 μg/ml together with test compound, decrease of mitotic cells (phospho-histone H3 Ser10)
# Excerpt: The spindle assembly checkpoint assures the proper segregation of chromosomes during mitosis. Upon entry into mitosis, chromosomes begin to condensate which is accompanied by the phosphorylation of histone H3 on serine 10. Dephosphorylation of histone H3 on serine 10 begins in anaphase and ends at early telophase. […] The mitotic breakthrough can be detected by the decrease of cells with phosphorylation of histone H3 on serine 10. […]
pIC50: −log10 of the molar value.
parameter: pIC50

Take a look at these entries with their results.
CCN1CCN(C(=O)c2ccc(NC(=O)c3c(C)nsc3Nc3cncc(C(F)(F)F)n3)cc2)CC1    6.08
Cc1nsc(Nc2ccc(C#N)cn2)c1C(=O)Nc1cccc(C(=O)OC(C)(C)C)c1    6.89
Cc1nsc(Nc2cnc3ccccc3n2)c1C(=O)Nc1ccc(NCC2CCN(C(=O)OC(C)(C)C)CC2)nc1    5.46
Cc1nsc(Nc2cncc(C(F)(F)F)n2)c1C(=O)Nc1ccc(OCC2CCN(C(=O)OC(C)(C)C)C2)nc1 (stereo not drawn)    7.46
Cc1nsc(Nc2cnc(C(F)(F)F)cn2)c1C(=O)Nc1ccc(F)c(OC[C@@H]2CCCN(CC(F)(F)F)C2)c1    7.14

A: Cc1nsc(Nc2cnc3ccccc3n2)c1C(=O)Nc1ccc(OC2CCCN(CC(F)F)C2)nc1 (stereo not drawn)
B: Cc1nsc(Nc2cnc3ccccc3n2)c1C(=O)Nc1ccc(OC2CCNCC2)nc1
C: Cc1nsc(Nc2cnc(C(F)(F)F)cn2)c1C(=O)Nc1ccc(OCC2CCCN(CC(F)(F)F)C2)nc1 (stereo not drawn)
D: Cc1nsc(Nc2cnc(C(F)(F)F)cn2)c1C(=O)Nc1ccc(F)c(OCCCNC(=O)C(F)(F)F)c1
Task item: Please list these compounds in decreasing order of pIC50. Write the labels out in the order the request specifies.
Reply: C, B, D, A
(C: 8.25, B: 6.49, D: 6.15, A: 5.85)

a: CCCN1CC[C@H](Oc2ccc(NC(=O)c3c(C)nsc3Nc3cnc(C(F)(F)F)cn3)cn2)[C@H](F)C1
b: Cc1nsc(Nc2cncc(C(F)(F)F)n2)c1C(=O)Nc1ccc(OC2CCN(C(C)C)CC2)nc1
c: Cc1nsc(Nc2ccc(C#N)cn2)c1C(=O)Nc1ccc(F)c(C(N)=O)c1
d: Cc1nsc(Nc2ccc(C#N)cn2)c1C(=O)Nc1ccc(Nc2ccc(F)c(F)c2)nc1
Task item: Please list these compounds in decreasing order of pIC50. Write the labels out in the order the request specifies.
Reply: a, d, b, c
(a: 8.23, d: 6.68, b: 6.42, c: 5.89)
